System: Wild type
experimental-details: S. aureus survival, RN4220 and DeltatarO strains – OD600, teichoic acid synthesis inhibitors, primary screen (AID 463173)
run-conditions: S. aureus RN4220 wild type/DeltatarO growth, OD600, 18 h, hits give low values, screened at 18.75 µg/mL (by protocol)
The campaign covered roughly 52,000 compounds. About 1,700 (3.3%) were called active. Only a selection was taken, and actives are over-represented in it overall.
This listing pairs compounds with measured survival.
assay-endpoint: survival (%)

- compound: "O=C(NCCc1ccccc1)C1COc2ccccc2C1 (stereo unspecified)"
  assayed-target: "Wild type"
  meas-value: 10
- compound: "COC(=O)c1sc2cccc(F)c2c1S(=O)(=O)Nc1cc(C)c(Cl)cc1OC"
  assayed-target: "Wild type"
  meas-value: 85
- compound: "Cc1cccn2c(=O)c(C(=O)N3CCN(c4ccc(Cl)cc4)CC3)cnc12"
  assayed-target: "Wild type"
  meas-value: 87
- compound: "CCOc1ccc(CCNC(=O)C2COc3ccccc3C2)cc1OCC (stereo unspecified)"
  assayed-target: "Wild type"
  meas-value: -2
- compound: "COC(=O)c1sc2cccc(F)c2c1S(=O)(=O)Nc1ccc(C)cc1Cl"
  assayed-target: "Wild type"
  meas-value: 63
- compound: "COc1ccc(NC(=O)CSc2nc(-c3ccccc3)nc3cc(=O)[nH]n23)cc1"
  assayed-target: "Wild type"
  meas-value: 73
- compound: "Cc1ccc(CCNC(=O)C2COc3ccccc3C2)cc1 (stereo unspecified)"
  assayed-target: "Wild type"
  meas-value: 88
- compound: "CCOC(=O)c1sc2cccc(F)c2c1S(=O)(=O)Nc1ccccc1F"
  assayed-target: "Wild type"
  meas-value: 124
- compound: "Cc1ccc(CNC(=O)C2COc3ccccc3C2)cc1 (stereo unspecified)"
  assayed-target: "Wild type"
  meas-value: 121
- compound: "CCc1ccc(CNC(=O)C2COc3ccccc3C2)cc1 (stereo unspecified)"
  assayed-target: "Wild type"
  meas-value: 88
- compound: "CCOc1cc(CNC(=O)C2COc3ccccc3C2)cc(OCC)c1OCC (stereo unspecified)"
  assayed-target: "Wild type"
  meas-value: 73

====

Tested on: Wild type
experimental-details: S. aureus survival, RN4220 and DeltatarO strains – OD600, teichoic acid synthesis inhibitors, primary screen (AID 463173)
run-conditions: S. aureus RN4220 wild type/DeltatarO growth, OD600, 18 h, hits give low values, screened at 18.75 µg/mL (by protocol)
About 1,700 (3.3%) of roughly 52,000 compounds were called active. The sample as a whole holds a higher share of actives than the screen did.

- compound: "CCOc1ccc(Nc2c(S(=O)(=O)c3ccc(Cl)cc3)cnc3ccc(OCC)cc23)cc1"
  assayed-target: "Wild type"
  survival / %: 79
- compound: "CCOC(=O)c1cnc2cc(C(F)(F)F)ccc2c1Nc1ccc(F)cc1F"
  assayed-target: "Wild type"
  survival / %: -12
- compound: "CCOc1ccc(Nc2c(S(=O)(=O)c3ccccc3)cnc3ccc(F)cc23)cc1"
  assayed-target: "Wild type"
  survival / %: 61
- compound: "Cc1ccc(C(NC(=O)Cc2cccs2)C(=O)Nc2ccc(C(C)C)cc2)cc1 (stereo not given)"
  assayed-target: "Wild type"
  survival / %: 82
- compound: "CCOC(=O)c1cnc2c(ccc3ccccc32)c1Nc1cccc(C(F)(F)F)c1"
  assayed-target: "Wild type"
  survival / %: 37
- compound: "CCc1cccc(NCc2ccccc2-c2nnc(-c3ccccc3Cl)o2)c1"
  assayed-target: "Wild type"
  survival / %: 81
- compound: "CCOC(=O)c1cnc2ccc(OCC)cc2c1Nc1cc(Cl)c(OC)cc1OC"
  assayed-target: "Wild type"
  survival / %: 60
- compound: "CCOC(=O)c1cnc2ccc(Cl)cc2c1Nc1ccc(OCC)cc1"
  assayed-target: "Wild type"
  survival / %: -3
- compound: "CC(=O)c1cccc(NC(=O)c2ccc3c(c2)CCN3S(=O)(=O)c2ccccc2)c1"
  assayed-target: "Wild type"
  survival / %: 71
- compound: "Cc1ccc(C(=O)ON=C2CCN(C)CC2)cc1"
  assayed-target: "Wild type"
  survival / %: 108

====

Test system: Wild type
experimental-details: S. aureus survival, RN4220 and DeltatarO strains – OD600, teichoic acid synthesis inhibitors, primary screen (AID 463173)
run-conditions: S. aureus RN4220 wild type/DeltatarO growth, OD600, 18 h, screened at 18.75 µg/mL (by protocol)
Out of some 52,000 compounds screened, about 1,700 (3.3%) were called active. No stated cut-off is given here; in the data, active means survival mostly below about 52% (no sharp cut-off); inactive means mostly above about 56%. The sample holds actives, similar compounds and a random draw of the others, so the mix is not that of the screen.
Outcome codes: t (active), f (inactive)

- smiles: "N=c1nc(SCCC(=O)O)ss1"
  assigned-class: "f"
- smiles: "COc1ccccc1NC(=O)c1cc2c(C)nn(-c3ccccc3)c2s1"
  assigned-class: "t"
- smiles: "Cc1ccc(CNC(=O)CCc2c(C)nn(-c3ccc(N4CCOCC4)nn3)c2C)cc1"
  assigned-class: "f"
- smiles: "COc1ccccc1NC(=O)c1cc2c(-c3ccccc3)nn(-c3ccccc3)c2s1"
  assigned-class: "f"
- smiles: "Cn1c(=O)c2c(nc(NCc3ccccc3)n2Cc2ccccc2)n(C)c1=O"
  assigned-class: "f"
- smiles: "CCOCCc1nn2c(=O)cc(COC(=O)c3ccccc3OC)nc2s1"
  assigned-class: "f"

====

System: Wild type
experimental-details: S. aureus survival, RN4220 and DeltatarO strains – OD600, teichoic acid synthesis inhibitors, primary screen (AID 463173)
run-conditions: S. aureus RN4220 wild type/DeltatarO growth, OD600, 18 h, hits give low values, screened at 18.75 µg/mL (by protocol)
Hit rate of the full screen: of about 52,000 compounds, about 1,700 (3.3%) were called active. The list comes from a sample in which actives are over-represented; it also holds close analogues and randomly drawn compounds.

- smiles: "O=C(c1ccc2c(Cl)c3c(nc2c1)CCCC3)N1CCN(c2cccc(Cl)c2)CC1"
  assayed-target: "Wild type"
  unit-symbol: "%"
  survival: 62
- smiles: "CCOc1ccc(-c2cc3nc(C4CCN(C(=O)OC(C)(C)C)CC4)c(C(=O)Nc4c(C)cccc4C)cn3n2)cc1"
  assayed-target: "Wild type"
  unit-symbol: "%"
  survival: 86
- smiles: "O=C(c1ccc2c(Cl)c3c(nc2c1)CCCC3)N1CCN(c2ccc(Cl)cc2)CC1"
  assayed-target: "Wild type"
  unit-symbol: "%"
  survival: 90
- smiles: "Cc1ccc(Cl)cc1N1CCN(C(=O)c2ccc3c(Cl)c4c(nc3c2)CCCC4)CC1"
  assayed-target: "Wild type"
  unit-symbol: "%"
  survival: 29
- smiles: "CCOC(=O)c1ccc(CNS(=O)(=O)c2c(C)ccc3nsnc23)o1"
  assayed-target: "Wild type"
  unit-symbol: "%"
  survival: 105

====

System: Wild type
experimental-details: S. aureus survival, RN4220 and DeltatarO strains – OD600, teichoic acid synthesis inhibitors, primary screen (AID 463173)
run-conditions: S. aureus RN4220 wild type/DeltatarO growth, OD600, 18 h, hits give low values, screened at 18.75 µg/mL (by protocol)
Among all 52,000 compounds or so, about 1,700 (3.3%) were called active. For the sample, actives were picked, then their nearest neighbours and some compounds at random.

- compound: "CCOC(=O)C(CC)n1nc(C)n2c(cc3occc32)c1=O (stereo not given)"
  survival: "120% (inactive)"
- compound: "CCOc1ccc(NC(=O)CCCn2c(C)c3cnn(-c4ccccc4)c(=O)c3c2C)cc1"
  survival: "89% (inactive)"
- compound: "COc1ccc(-c2cn3c(n2)sc2cc(C(=O)Nc4c(C)cccc4C)ccc23)cc1"
  survival: "83% (inactive)"
- compound: "COc1cccc(N2CCN(C(=O)c3c4c(nc5ccccc35)C(=O)N(C3CCCCC3)C4)CC2)c1"
  survival: "88% (inactive)"
- compound: "Cc1ccc2cccc(NC(=O)c3cccc4c(Br)cccc34)c2n1"
  survival: "134% (inactive)"
- compound: "Cc1nnc(C)c2c(C)n(-c3ccc4c(c3)OCO4)c(C)c12"
  survival: "111% (inactive)"
- compound: "Cc1ccc2cccc(NC(=O)c3ccc(-c4cc(Cl)ccc4Cl)o3)c2n1"
  survival: "71% (inactive)"
- compound: "Cc1ccc2cccc(NC(=O)c3cccc4c(Cl)cccc34)c2n1"
  survival: "69% (inactive)"
- compound: "Cc1ccc(N(C)C(=O)Cn2cc(S(=O)(=O)N3CCCC3)c(S(=O)(=O)N3CCCC3)c2)cc1"
  survival: "73% (inactive)"
- compound: "O=C(Nc1cccc2cccnc12)c1cccc2ccccc12"
  survival: "1% (active)"

====

System: Wild type
experimental-details: S. aureus survival, RN4220 and DeltatarO strains – OD600, teichoic acid synthesis inhibitors, primary screen (AID 463173)
run-conditions: S. aureus RN4220 wild type/DeltatarO growth, OD600, 18 h, screened at 18.75 µg/mL (by protocol)
Out of some 52,000 compounds screened, about 1,700 (3.3%) were called active. No stated cut-off is given here; in the data, active means survival mostly below about 52% (no sharp cut-off); inactive means mostly above about 56%. For the sample, actives were picked, then their nearest neighbours and some compounds at random.
Outcome codes: active, inactive

- compound: "O=C(CSc1nc(=O)[nH]c2c1CCCC2)NCc1ccccc1Cl"
  assigned-class: "inactive"
- compound: "Cc1ccc(NC(=O)Nc2cn(C)c(=O)c3ccccc23)c(Cl)c1"
  assigned-class: "inactive"
- compound: "Cc1ccc(N2CCN(C(=O)c3c(C)oc4nc(C)nc(N5CCCC5)c34)CC2)c(C)c1"
  assigned-class: "inactive"
- compound: "Cc1cc(C)nc(Nc2nc3ccccc3s2)n1"
  assigned-class: "inactive"
- compound: "CC(C(=O)N(C(C)C)C(C)C)N1CCN(C)CC1 (stereo not given)"
  assigned-class: "inactive"
- compound: "CCOc1ccccc1N(CC)C(=O)Nc1cn(C)c(=O)c2ccccc12"
  assigned-class: "inactive"
- compound: "CCOc1ccc(CCNC(=O)c2nnc(Cc3cc(OC)c(OC)c(OC)c3)o2)cc1OCC"
  assigned-class: "inactive"
- compound: "CC(C)c1ccc(NC(=O)Cn2c(=O)oc3cc(S(=O)(=O)N4CCCC4)ccc32)cc1"
  assigned-class: "inactive"
- compound: "COc1cccc(C2=CC(c3cc(Br)ccc3F)n3nnnc3N2)c1 (stereo not given)"
  assigned-class: "active"
- compound: "CCOc1ccccc1C(=O)N1CCc2cc(OC)c(OC)cc2C1COc1ccc2c(C)cc(=O)oc2c1 (stereo not given)"
  assigned-class: "inactive"

Source listed as PubChem BioAssay AID463173.
